Hey, just so you know, these numbers are from PubChem BioAssay AID2551.

# measurement_target: Nuclear receptor ROR-gamma (Mus musculus) (UniProt P51450)
# Sequence (P51450 whole entry, looked up): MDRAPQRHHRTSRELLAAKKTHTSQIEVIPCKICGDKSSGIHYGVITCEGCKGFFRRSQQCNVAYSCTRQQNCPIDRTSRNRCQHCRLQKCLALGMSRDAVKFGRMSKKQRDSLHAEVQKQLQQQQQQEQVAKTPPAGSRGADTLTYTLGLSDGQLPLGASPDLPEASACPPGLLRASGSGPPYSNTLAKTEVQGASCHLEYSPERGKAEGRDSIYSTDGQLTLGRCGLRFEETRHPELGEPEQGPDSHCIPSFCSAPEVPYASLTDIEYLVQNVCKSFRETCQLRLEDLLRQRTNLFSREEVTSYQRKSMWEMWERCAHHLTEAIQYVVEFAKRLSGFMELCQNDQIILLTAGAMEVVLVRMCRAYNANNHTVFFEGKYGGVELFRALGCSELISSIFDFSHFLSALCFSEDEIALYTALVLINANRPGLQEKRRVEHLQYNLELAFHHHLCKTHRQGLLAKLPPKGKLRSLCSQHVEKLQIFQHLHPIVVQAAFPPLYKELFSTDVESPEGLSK
# assay: qHTS for inhibitors of ROR gamma transcriptional activity; also: nearly all actives have a fitted effect of over 60% in size; also: potency is read from the fitted curve at half-maximal effect
# condition_parameters: Drosophila S2 Gal4-RORgamma UAS-luciferase reporter, 20 h; series mostly up to 53.6 µM
The whole screen tested about 310,000 compounds, of which about 17,000 (5.5%) were called active. Another 11% or so got no clear call; they are omitted. The sample as a whole holds a higher share of actives than the screen did.

molecule | Potency
COc1ccc(-n2ncc3c(SCC(=O)NNC(C)=O)ncnc32)cc1 | inactive
Cc1ccc(O)c(/C=N/NC(=O)COc2ccc3c(C)cc(=O)oc3c2)c1 | 2.51 µM (active)
COCCc1nn2c(=O)cc(COC(=O)c3cc(OC)c(OC)c(OC)c3)nc2s1 | inactive
COc1ccc(-c2oc3ncnc(NCCCO)c3c2-c2ccc(OC)cc2)cc1 | inactive
Cc1cc(=O)oc2cc(OCC(=O)Nc3nnc(C4CC4)s3)ccc12 | inactive
CC(=O)Oc1cccc(C(=O)Nc2ccccc2NC(=O)c2cccc(OC(C)=O)c2)c1 | inactive
COC(=O)c1cc(OCC(=O)NC2CCCc3ccccc32)cc(C(=O)OC)c1 (stereo not drawn) | inactive
COc1ccc(NC(=O)Cn2ncn3c(cc4ccccc43)c2=O)c(OC)c1OC | inactive
Cc1ccc([N+](=O)[O-])cc1S(=O)(=O)N1CCCN(C)CC1 | inactive
Cc1ccc(C(=O)Nc2nnc(C3=COCCO3)o2)cc1C | 0.282 µM (active)
COC(=O)COc1ccc2oc(=O)cc(C)c2c1 | inactive
Cc1ccc(C(=O)NCC(=O)OCc2nnc(-c3ccccc3)o2)cc1 | inactive
Clc1ccc(-c2nc3ccccn3c2CN2CCSCC2)cc1 | 12.6 µM (active)
CC1=C(C(N)=O)C(c2ccc(Br)cc2)n2ncnc2N1 (stereo not drawn) | inactive
Clc1ccc(-c2nnc(-c3ccccc3)nc2N2CCSCC2)cc1 | inactive
O=C(O)c1ccccc1NC(=O)c1ccccc1-c1ccccc1C(=O)O | inactive
CC1CCN(Cc2nc(-c3ccc(Cl)cc3)no2)CC1 | inactive
N=c1c2c(-c3ccccc3)c(-c3ccccc3)oc2ncn1Cc1ccco1 | inactive
